Listing of recorded self-aminoacylation by entry.
# Test system: biotinyl-Trp-oxazolone
# experiment.description: self-aminoacylation, catalytic enhancement (BWO) (fold over background); higher = more active; k-Seq, kA / k0A0; sequences stand for … in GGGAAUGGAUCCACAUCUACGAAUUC…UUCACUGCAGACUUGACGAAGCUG
This sample holds only a part of the variants without activity.
Response field accepts a number only; no unit should be typed.

Sample records with self-aminoacylation:
{"item.sequence": "AUUCACCUAGGUCCUCGAGUG [Fam2.2 aminoacylation ribozyme variant]", "self-aminoacylation": 1.18}
{"item.sequence": "AUUCAGCUUGGUCAUCGGGUG [Fam2.2 aminoacylation ribozyme variant]", "self-aminoacylation": 4.05}
{"item.sequence": "CUACUUCAAACAAUAGGUCAG [Fam1A.1 aminoacylation ribozyme variant]", "self-aminoacylation": 0.568}
{"item.sequence": "AUUCACCUAGGCCAUCGGGCG [Fam2.2 aminoacylation ribozyme variant]", "self-aminoacylation": 5.38}
{"item.sequence": "CUACUUCAAACCAUCGGUCUC [Fam1A.1 aminoacylation ribozyme variant]", "self-aminoacylation": 0.731}

Problem: self-aminoacylation of CUCCUUCAAACAAUCGGUCAG [Fam1A.1 aminoacylation ribozyme variant] on biotinyl-Trp-oxazolone?
Result: 7.87

Problem: Would you kindly repeat that for CCACACCUCAAGCGAUCGGUC [Fam1B.1 aminoacylation ribozyme variant] ?
Result: 1.5

Problem: Moving on to AUUGCCCUGGUCAUCGAGUGG [Fam2.1 aminoacylation ribozyme variant]
Result: 29.8

Problem: Try the sequence AUUCCCCUAGGUCAUCGGGAG [Fam2.2 aminoacylation ribozyme variant]
Result: 8.9

Problem: Another sequence to look at: AAUUUUGCUAAUAGUCGCAAG [Fam3.1 aminoacylation ribozyme variant]
Result: 2.43

Problem: Continue with CCACACUUCUAGCAAUUGGUC [Fam1B.1 aminoacylation ribozyme variant]
Result: 0.401

Problem: Query AAGUUUGCUAAAAGUCGCAAA [Fam3.1 aminoacylation ribozyme variant] next
Result: 1.32

----------
# Test system: biotinyl-Phe-oxazolone
# experiment.description: self-aminoacylation, catalytic enhancement (BFO) (fold over background); higher = more active; k-Seq, kA / k0A0; sequences stand for … in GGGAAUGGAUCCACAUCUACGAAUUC…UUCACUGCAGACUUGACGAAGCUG
Fewer inactive variants are shown than the library holds.
Our labelling divides records by self-aminoacylation into ranges: low bracket = under 1, middle bracket = from 1 up to 3, high bracket = 3 and over

Problem: Category of AAUGACCUAGGUCAUCGGGUG [Fam2.2 aminoacylation ribozyme variant] :
Result: high bracket

Problem: Follow-up entry: CUUCUACAAACAAUCGGUCUG [Fam1A.1 aminoacylation ribozyme variant]
Result: low bracket

Problem: Try this sequence too: AACUUAGCUAAUAGUCGCAAG [Fam3.1 aminoacylation ribozyme variant]
Result: middle bracket

Problem: Try AUUACCCUUGUCAUCUAGUGA [Fam2.1 aminoacylation ribozyme variant] next.
Result: high bracket

Problem: And CUACUUCAAACCAUCGUUCUG [Fam1A.1 aminoacylation ribozyme variant] ?
Result: low bracket

Problem: Ok, now AUUACCCAGGUCAUCGAGUGU [Fam2.1 aminoacylation ribozyme variant]
Result: middle bracket

Problem: Also check AAAUUUGCUAAUAGUUGCAAG [Fam3.1 aminoacylation ribozyme variant]
Result: middle bracket

Problem: // next record CUACAUCAAACAAUCGGUCUG [Fam1A.1 aminoacylation ribozyme variant]
Result: middle bracket

Problem: Continue with CCACAGUUCAAGCAGUCGGUC [Fam1B.1 aminoacylation ribozyme variant]
Result: low bracket

Problem: How about this sequence: AUUACCUUGGUCAUCGAGUCA [Fam2.1 aminoacylation ribozyme variant]
Result: low bracket

Problem: Also, CUAUUUCAAACAAUCGGGCUG [Fam1A.1 aminoacylation ribozyme variant] please.
Result: middle bracket

Problem: Also AUUCACCUAGGUCAUCUUGUG [Fam2.2 aminoacylation ribozyme variant] , if possible.
Result: middle bracket

Problem: Same thing, different sequence: AAGUUUUCUAAUAGUCGCAUG [Fam3.1 aminoacylation ribozyme variant]
Result: high bracket

Problem: Next record, please: AUUACCCUGGUCACCGAGUCA [Fam2.1 aminoacylation ribozyme variant]
Result: low bracket

Problem: Next sequence up: AGGUUAGCUAAUAGUCGCAAG [Fam3.1 aminoacylation ribozyme variant]
Result: middle bracket

Problem: What about this sequence? CCACACUUCAAGAAAUCGGUC [Fam1B.1 aminoacylation ribozyme variant]
Result: high bracket

Problem: How about CCCGACUUCAAGCAAUCGGUC [Fam1B.1 aminoacylation ribozyme variant] ?
Result: high bracket

Problem: # iterate: AAGUUUGCUAAUAGGCGCACG [Fam3.1 aminoacylation ribozyme variant]
Result: middle bracket
